- assay details: yeast display, Sf9 membrane polyspecificity reagent, FACS + sequencing; frameworks hold sequencing errors

| sequence entry | polyreactivity (PSR sort gate) |
| --- | --- |
| QVQLVESGGGLVQAGGSLRLSCAASGRTFPHYAMGWYRQAPGKERELVAAITSGGTTNYADSVKGRFTISRDNEKNTVYLQLNSLKPEDTAVYYCNADMDLDTAWDGFVAYDYWGQGTQVTVSS | low polyreactivity |
| QVQLVESGGGLFQAGGSLRLSCAPSGFTFSWYDMGWYRQAPGKERELVAAISLSGDRTYYADSVKGRFTISRDNAKNTVYLQMNSLKPEDTAVYYCAADERVDQCWIRMDYWGQGTQVTVSS | low polyreactivity |
| HVQLVESGGGLVQAGGSLRVSCAASGSILTRNAMGWYRQAPGKERELVAAITGSGGRTYYADSVKGRFTISRDNAKNTVDLQMNSLKPEDTAVYYCAAGWRFGRYSGDYWGQGTQVTVSS | high polyreactivity |
| QVQLVESGGGLVQAGGSLRLSCAASGRILPFYAMGWYRQAPGKERELVATISWTSDSTYYADSVKGRFTISRDNAKNTVYLQMNSLKPEDTAVYYCAREYTYTYASTVIYDHWGQGTQVTVSS | low polyreactivity |
| QDQLVESGGGLVQAGGSLRLSCAASGSILLLNMGWYRQAPGKEMELVASIRWSGGITYYADSVKGRFTISRDNAKNTVYLQMNSLKPEDTAVYYCAARTYRYFGRYDYWGQGTQVTVSS | high polyreactivity |
| QVQLVESGGGLVQAGGSLRLSCAASGYTFSHYPMGWYRQAPGKERELVAGITWSGGSTYYADSVKGRFTISRDNAKNTVYLQMNSLKPEDTSVYYCAGKYYWYYSYSGIPLFDYWGQGTQVTVSS | low polyreactivity |
| QVQLVESGGGLVQAGGSLRLSCAASGSTIDRYAMGWYIQAPGKEREFVAAISFSSASTYYADSVKGRFTISRDNAKNTVYLQMNSLKPEDTAVYYCNADFFDSGGSIEYDSWGQGTQVTVSS | low polyreactivity |
| QVQLVESGGGLVQAGGSLRLSCAASGSIFSVYAMGWYRPAPGKERELVASITNDGSTNYADSVKGRFTISRDNAKNTVYLQMNSLKPEDTAVYYCNADSYTKLDYWGQGTQVTVSS | low polyreactivity |
| QVQLVESGGGLVQAGGSLRLSCAASGITFYYYAMGWYRQAPGKERELVAAISSRGGSTYYADSVKGRFTISRDNAKNTVYLQMNSLKPEDTAVYYCAALYDYWGQGTQVTVSS | high polyreactivity |
| QLQLVESGGGLVQAGGSLRFSCAASGYISRRYAMVWSIQAPGKERELVAAITGGGGSTYYADSVKGRFTISRDNAKNTVYLQMNSLKPEFTAVYYCNAYWGRSGYAGGYWGQGTQVTVSS | high polyreactivity |
| QGHLVESGGRLVQAGGSLRLSCAASGRIFPTYTMGWYRQAPWKERELVAAIRRGGGRTYYADSVKGRFTISRDNAKKTVYLQMNSLKPEDTAVYYCAAPFYRQSLIEYDYWGQGTQVTVSS | high polyreactivity |

Data origin: the nanobody polyreactivity screen of Harvey et al. (2022)
